target: full-length FLAG-tagged B-Raf(V600E) (Homo sapiens (Human), UniProt P15056, V600E); assay: BRAF V600E enzyme assay (TR-FRET competitive displacement); type: binding; details: averaged IC50; TR-FRET tracer displacement, 60 min
Sequence (P15056 whole entry V600E): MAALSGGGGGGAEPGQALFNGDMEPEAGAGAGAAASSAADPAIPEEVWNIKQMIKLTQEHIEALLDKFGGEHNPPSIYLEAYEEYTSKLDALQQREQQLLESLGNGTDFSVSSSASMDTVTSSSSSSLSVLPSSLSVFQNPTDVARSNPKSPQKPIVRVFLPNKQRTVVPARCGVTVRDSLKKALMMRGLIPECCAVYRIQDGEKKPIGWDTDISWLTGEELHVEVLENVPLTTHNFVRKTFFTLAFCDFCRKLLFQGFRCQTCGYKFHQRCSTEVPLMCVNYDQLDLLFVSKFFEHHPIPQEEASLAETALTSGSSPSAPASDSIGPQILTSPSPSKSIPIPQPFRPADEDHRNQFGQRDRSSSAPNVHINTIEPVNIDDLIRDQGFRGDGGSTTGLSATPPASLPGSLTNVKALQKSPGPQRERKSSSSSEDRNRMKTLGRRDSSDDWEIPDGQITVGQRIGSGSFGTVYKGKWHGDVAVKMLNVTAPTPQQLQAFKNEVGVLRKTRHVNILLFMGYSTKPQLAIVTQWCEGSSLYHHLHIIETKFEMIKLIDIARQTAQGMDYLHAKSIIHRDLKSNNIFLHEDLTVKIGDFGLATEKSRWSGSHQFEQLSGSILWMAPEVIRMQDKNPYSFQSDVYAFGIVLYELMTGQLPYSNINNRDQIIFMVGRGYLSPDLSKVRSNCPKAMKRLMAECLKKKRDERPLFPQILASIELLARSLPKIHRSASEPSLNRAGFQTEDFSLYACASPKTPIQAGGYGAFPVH
Structures can show the parent of a compound that is named as a salt.
Property: IC50; scope: individual compounds
Value kind: IC50 (nM)

INSERT INTO results (compound, units, reported_value) VALUES
  ('Cc1c(Nc2c(F)ccc(NS(=O)(=O)N3CCCC3)c2F)ccc2ncn(C)c(=O)c12 [Example 113, trifluoroacetate]', 'nM', 38),
  ('Cn1cnc2ccc(Nc3c(F)ccc(NS(=O)(=O)N4CC(OC(F)F)C4)c3Cl)c(F)c2c1=O', 'nM', 10),
  ('Cc1c(Nc2c(F)ccc(NS(=O)(=O)N3CCC(C(F)(F)F)C3)c2Cl)ccc2ncn(C)c(=O)c12 (centres unmarked) [Example 76, trifluoroacetate]', 'nM', 183),
  ('CO[C@H]1CN(S(=O)(=O)Nc2ccc(F)c(Nc3ccc4ncn(C)c(=O)c4c3Br)c2Cl)C[C@H]1F (relative stereo) [Example 16, trifluoroacetate]', 'nM', 6),
  ('[2H]C([2H])([2H])O[C@@H]1CCN(S(=O)(=O)Nc2ccc(F)c(Nc3ccc4ncn(C)c(=O)c4c3F)c2Cl)C1 [Example 54, trifluoroacetate]', 'nM', 17),
  ('CN(C)S(=O)(=O)Nc1ccc(F)c(Oc2ccc3ncn(C)c(=O)c3c2Cl)c1Cl', 'nM', 8),
  ('Cc1c(Nc2c(F)ccc(NS(=O)(=O)N3CC(F)(F)C3)c2Cl)ccc2ncn(C)c(=O)c12', 'nM', 7),
  ('Cc1c(Nc2c(F)ccc(NS(=O)(=O)N(C)C3CCC3)c2Cl)ccc2ncn(C)c(=O)c12', 'nM', 203),
  ('Cc1c(Nc2c(F)ccc(NS(=O)(=O)N3CCC4CC4C3)c2Cl)ccc2ncn(C)c(=O)c12 (centres unmarked)', 'nM', 103),
  ('[2H]C([2H])([2H])O[C@@H]1CCN(S(=O)(=O)Nc2ccc(F)c(Nc3ccc4ncn(C)c(=O)c4c3C)c2Cl)C1 [Example 55, trifluoroacetate]', 'nM', 45),
  ('Cc1c(Nc2c(F)c(F)cc(NS(=O)(=O)N3CC4CC3C4)c2Cl)ccc2ncn(C)c(=O)c12', 'nM', 3),
  ('Cn1cnc2ccc(Nc3c(F)ccc(NS(=O)(=O)N4CC[C@@H](OC(F)F)C4)c3Cl)c(Cl)c2c1=O', 'nM', 3),
  ('CO[C@@H]1CCN(S(=O)(=O)Nc2cc(F)c(F)c(Nc3ccc4ncn(C)c(=O)c4c3Cl)c2F)C1', 'nM', 4),
  ('Cc1c(Nc2c(F)ccc(NS(=O)(=O)N3CC(C#N)C3)c2Cl)ccc2ncn(C)c(=O)c12 [Example 146, trifluoroacetate]', 'nM', 27);

* * *

Property: efflux ratio at 2 h, 1 µM; scope: individual molecules
molecular target: P-gp (MDR1) (Homo sapiens (Human), UniProt P08183); test: MDR1 LLC-PK1 permeability assay: efflux ratio; assay type: in vitro ADME; conditions: pig
Sequence (P08183 whole entry, species assumed): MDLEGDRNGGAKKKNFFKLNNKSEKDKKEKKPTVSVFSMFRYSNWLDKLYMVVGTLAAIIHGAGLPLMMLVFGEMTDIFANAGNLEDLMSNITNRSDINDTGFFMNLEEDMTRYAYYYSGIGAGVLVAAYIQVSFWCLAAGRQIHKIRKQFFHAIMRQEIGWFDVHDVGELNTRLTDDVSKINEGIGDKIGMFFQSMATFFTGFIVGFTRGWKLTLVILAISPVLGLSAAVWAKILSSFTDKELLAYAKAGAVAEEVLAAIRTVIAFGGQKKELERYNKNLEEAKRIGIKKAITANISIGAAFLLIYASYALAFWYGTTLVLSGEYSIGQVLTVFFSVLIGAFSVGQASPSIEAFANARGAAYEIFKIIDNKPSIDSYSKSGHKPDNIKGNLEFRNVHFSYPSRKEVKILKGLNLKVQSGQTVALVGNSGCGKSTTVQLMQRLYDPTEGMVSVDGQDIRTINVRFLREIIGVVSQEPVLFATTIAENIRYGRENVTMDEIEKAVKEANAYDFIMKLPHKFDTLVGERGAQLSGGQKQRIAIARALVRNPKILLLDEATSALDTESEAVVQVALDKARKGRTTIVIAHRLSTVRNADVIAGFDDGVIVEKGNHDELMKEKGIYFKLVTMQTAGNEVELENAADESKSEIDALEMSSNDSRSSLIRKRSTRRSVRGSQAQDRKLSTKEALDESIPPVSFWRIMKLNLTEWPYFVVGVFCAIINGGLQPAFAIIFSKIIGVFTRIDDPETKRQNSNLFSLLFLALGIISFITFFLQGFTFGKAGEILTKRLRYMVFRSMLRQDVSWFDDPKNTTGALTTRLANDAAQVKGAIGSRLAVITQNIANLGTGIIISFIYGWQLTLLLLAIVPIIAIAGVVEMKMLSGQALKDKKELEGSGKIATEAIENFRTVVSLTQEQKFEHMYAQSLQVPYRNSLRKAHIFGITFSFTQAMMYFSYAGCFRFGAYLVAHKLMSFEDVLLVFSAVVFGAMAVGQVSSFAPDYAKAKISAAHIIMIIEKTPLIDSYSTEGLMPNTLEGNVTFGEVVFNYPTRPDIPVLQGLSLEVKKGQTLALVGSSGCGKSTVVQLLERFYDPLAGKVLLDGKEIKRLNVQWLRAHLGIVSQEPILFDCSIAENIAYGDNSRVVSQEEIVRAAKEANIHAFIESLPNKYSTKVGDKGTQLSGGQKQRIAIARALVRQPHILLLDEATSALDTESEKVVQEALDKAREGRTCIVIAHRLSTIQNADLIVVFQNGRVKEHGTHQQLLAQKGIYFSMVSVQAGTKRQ
Where a name gives a salt, the structure may show the parent alone.
Value kind: efflux ratio at 2 h, 1 µM

INSERT INTO results (molecule, value_kind, reported_value) VALUES
  ('Cn1cnc2ccc(Nc3c(F)ccc(NS(=O)(=O)N4CCCC4)c3Cl)c(Br)c2c1=O [Example 11, trifluoroacetate]', 'efflux ratio at 2 h, 1 µM', 1.3),
  ('Cc1c(Nc2c(F)ccc(NS(=O)(=O)N3CCCCC3)c2Cl)ccc2ncn(C)c(=O)c12', 'efflux ratio at 2 h, 1 µM', 0.8),
  ('Cc1c(Nc2c(F)c(F)cc(NS(=O)(=O)N3C[C@@H](F)[C@@H](F)C3)c2Cl)ccc2ncn(C)c(=O)c12', 'efflux ratio at 2 h, 1 µM', 2.7),
  ('Cc1c(Nc2c(F)c(F)cc(NS(=O)(=O)N3CC[C@@H](F)C3)c2Cl)ccc2ncn(C)c(=O)c12', 'efflux ratio at 2 h, 1 µM', 1.5),
  ('CCN(C)S(=O)(=O)Nc1ccc(F)c(Oc2ccc3ncn(C)c(=O)c3c2Cl)c1Cl', 'efflux ratio at 2 h, 1 µM', 1.1),
  ('Cc1c(Nc2c(F)ccc(NS(=O)(=O)N3CC4CC3C4)c2Cl)ccc2ncn(C)c(=O)c12 [Example 87, trifluoroacetate]', 'efflux ratio at 2 h, 1 µM', 1),
  ('CN(C)S(=O)(=O)Nc1ccc(F)c(Oc2ccc3ncn(C)c(=O)c3c2Cl)c1Cl', 'efflux ratio at 2 h, 1 µM', 1.5);
